Data origin, for the record: PubChem BioAssay (NCI)

- Test system: NCI-H226 lung
- Method: NCI tumour cell line growth inhibition, 48 h
Parameter TGI: see the listing below.
Measurement name: TGI

>>> readout_value("CCOC(=O)C1CCC(=O)N1C(=O)c1ccccc1 (stereo not given)")
"> 100 µM"
>>> readout_value("CC(NC(=O)N(C)C)NC(=O)N(C)C")
"> 10 µM"
>>> readout_value("CC(=O)OC1C(COC(=O)c2ccccc2)OC(Nc2ncc(-c3ccc(Br)cc3)s2)C(OC(=O)c2ccccc2)C1OC(=O)c1ccccc1 (stereo not given)")
"> 100 µM"
>>> readout_value("c1c[nH]c(CN2CCOCC2)n1")
"> 100 µM"
>>> readout_value("CC(=O)O[C@H]1CCc2c(cc(N)c3c2C(=O)C[C@]2(C)C([C@H](C)CCCC(C)C)CCC32C)C1(C)C (stereo not given in full)")
"> 100 µM"

----------
- Test system: A549 NSCLC
- Method: NCI tumour cell line growth inhibition, 48 h
Parameter TGI: see the listing below.
Measurement name: TGI

>>> readout_value("COc1ccc(OC)c(Cn2cc3c(c2-c2ccccc2)CCc2cnoc2-3)c1")
"> 100 µM"
>>> readout_value("Cc1ccccc1C(=O)N1CCN(C(=O)c2ccccc2C)CC1")
"> 100 µM"
>>> readout_value("CCOC(=O)/C(C#N)=C\\C=C(/Cl)c1ccc(Cl)cc1")
"90.4 µM"
>>> readout_value("C=CC(OCC)(OCC)OCC")
"> 100 µM"
>>> readout_value("C=C1C(=O)O[C@H]2[C@H]1CC/C(COC(=O)NCC(C)c1ccc(CC(C)C)cc1)=C\\CC[C@@]1(C)O[C@@H]21 (stereo not given in full)")
"11.8 µM"
>>> readout_value("Cc1cc(I)cc(CN(C)CCCN2CCCC2)c1O")
"> 100 µM"
>>> readout_value("COC(=O)C1=Nc2c(C)nn(-c3ccccc3)c2N=C(c2ccccc2)C1")
"> 10 µM"
>>> readout_value("COc1cc2c(cc1OC)-c1cc3ccccc3c(=O)n1CC2")
"> 100 µM"
>>> readout_value("O=c1cc(N2CCCC2)[nH]c(=O)n1-c1ccccc1")
"> 100 µM"
>>> readout_value("O=C1OCC2=C1C(c1ccccc1)c1cc3c(cc1N2CCO)OCO3 (stereo not given)")
"> 50 µM"
>>> readout_value("CCOC(=O)c1cn2c(n1)sc1cc(Cl)cc(Cl)c12")
"> 100 µM"
>>> readout_value("CCC(=O)Nc1nc2c(ncn2C2OC(COC(=O)CC)C(OC(=O)CC)C2OC(=O)CC)c(=O)[nH]1 (stereo not given)")
"> 100 µM"
>>> readout_value("CNC(=O)CCCNC(=O)CCCC(=O)N(C)C")
"> 100 µM"
>>> readout_value("CCNC(=O)c1noc(-c2cc(C(C)C)c(O)cc2O)c1-c1ccc(CN2CCOCC2)cc1")
"22.7 µM"
>>> readout_value("CCOP(=O)(/C=C\\n1ccc(N)nc1=O)OCC")
"> 100 µM"
>>> readout_value("CCOC(=O)NC(=O)c1cn(CCN2CCN(C(=O)CCCCCCCCCCC(=O)N3CCN(CCn4cc(C(=O)NC(=O)OCC)c(=O)[nH]c4=O)CC3)CC2)c(=O)[nH]c1=O")
"> 100 µM"
>>> readout_value("CC12CCCC3(CC(=O)C(C)(C)C3C(=O)C1)C2 (stereo not given)")
"> 100 µM"
>>> readout_value("C=C1C[C@@H]2CC[C@@]34C[C@H]5O[C@H]6[C@@H](O3)[C@H]3O[C@H](CC[C@@H]3O[C@H]6[C@@H]5O4)CC(=O)C[C@@H]3[C@@H](OC)[C@@H](C[C@H](O)CN)O[C@H]3C[C@H]3O[C@@H](CC[C@@H]1O2)C[C@@H](C)C3=C")
"> 100 µM"
>>> readout_value("O=c1c2cc(Br)ccc2nc(CCl)n1-c1ccc(O)c([N+](=O)[O-])c1")
"52.3 µM"
>>> readout_value("O=c1cc(-c2ccccc2)oc2c(-c3cc(Cl)cc4c(=O)cc(-c5ccccc5)oc34)cc(Cl)cc12")
"> 100 µM"
